These entries and their values trace back to PubChem BioAssay (NCI).

- Tested on: OVCAR-3 ovarian
- EXPERIMENTAL_PROTOCOL: NCI-60 one-dose screen, 48 h (100 = growth as untreated, 0 = no growth, -100 = all killed)
- DETAILS: 10 µM
The panel holds about 83,000 compounds, 20% with a hit somewhere; the sample as a whole holds those more often.
Kindly apply the following: Y if growth is less than 80%, N in every other case.

>>> class_name("Cc1ccc(-n2c(C)nn3c(=O)c4c5c(sc4nc23)CN(C)CC5)cc1")
"N"
>>> class_name("CCn1c(SC/C(=N/O)c2ccccc2)nnc1-c1ccccc1")
"N"
>>> class_name("CCN(CC)CCOC(=O)c1cc(OCc2ccccc2)c(OCc2ccccc2)c(OCc2ccccc2)c1")
"Y"
>>> class_name("C=C(NC(=O)C(=C)NC(=O)c1csc(C2=NC3c4csc(n4)C4NC(=O)c5csc(n5)C(C(C)(O)C(C)O)NC(=O)C5CSC(=N5)C(=CC)NC(=O)C(C(C)O)NC(=O)c5csc(n5)C3(CC2)NC(=O)C(C)NC(=O)C(=C)NC(=O)C(C)NC(=O)C(C(C)CC)NC2C=Cc3c(C(C)O)cc(nc3C2O)C(=O)OC4C)n1)C(N)=O (stereo not given)")
"Y"
>>> class_name("O=C(Nc1ccc(F)cc1)c1cc2ccccc2cc1O")
"N"
>>> class_name("COc1cc(C(=O)n2nc(-c3cc(OC)c(OC)c(OC)c3)nc2N)cc(OC)c1OC")
"N"
>>> class_name("CCOC(=O)c1cc(C(=O)c2ccc(OC)c(OC)c2)n2c1ccc1ccc3cccnc3c12")
"Y"
>>> class_name("Cc1n[nH]c(C)c1N=Nc1cccc2c1C(=O)c1ccccc1C2=O")
"N"
>>> class_name("N#Cc1c(-c2ccc(Cl)cc2)csc1NC(=O)Nc1ccc(Cl)c(C(F)(F)F)c1")
"Y"
>>> class_name("COc1cc(/C=C2\\CCCC3=C2NC(N)=NC3c2cc(OC)c(OC)c(OC)c2)cc(OC)c1OC (stereo not given)")
"Y"
>>> class_name("N#Cc1c(-c2ccc(Cl)cc2)cc(-c2cc(O)ccc2O)nc1N")
"Y"
>>> class_name("NS(=O)(=O)Oc1ccc2c(ccn2C(=O)C23CC4CC(CC(C4)C2)C3)c1")
"N"
>>> class_name("CNC(=O)c1c(I)c(NC(C)=O)c(I)c(C(=O)O)c1I")
"N"
>>> class_name("O=C(COc1cccc(/C=C2\\CSc3ccccc3C2=O)c1)c1ccc(Cl)cc1")
"Y"
